- ASSAY_EXPLANATION: Plasma clearance in Sprague-Dawley rat at 1 mg/kg, iv and 2 mg/kg, po
- Format: ADME, organism-based

COMPOUND	clearance [mL/min/kg]
COc1cc(-c2cn(C3CCc4c(F)cccc4N(CC(F)(F)F)C3=O)nn2)ccc1-n1cnc(C)c1 (stereo unspecified)	38

---

- TARGET_OF_ASSAY: Gamma-secretase
- ASSAY_EXPLANATION: Inhibition of gamma-secretase in human SH-SY5Y cells expressing beta-APP C-terminal fragment SPA4CT assessed as decrease of amyloid beta-42 level by electrochemiluminescent method
- Assay type: cell-based
# IC50 annotations

MOLECULE	TARGET_OF_ASSAY	DISPLAY_UNIT	IC50
COc1cc(-c2cn(C3CC[C@@H]4CCCC[C@H]4N(Cc4ccccc4)C3=O)nn2)ccc1-n1cnc(C)c1 (some centres undefined)	Gamma-secretase	nM	70
COc1cc(-c2cn(C3CCc4ccccc4N(CCF)C3=O)nn2)ccc1-n1cnc(C)c1 (centres undefined)	Gamma-secretase	nM	440
COc1cc(-c2cn(C3CCc4c(F)cc(F)cc4N(CC(F)(F)F)C3=O)nn2)ccc1-n1cnc(C)c1 (centres undefined)	Gamma-secretase	nM	40
COc1cc(-c2cn(C3CCc4ccccc4N(C)C3=O)nn2)ccc1-n1cnc(C)c1 (centres undefined)	Gamma-secretase	nM	430

---

- ASSAY_EXPLANATION: Oral bioavailability in dog at 0.5 mg/kg
- Type: ADME, organism-based, Canis lupus familiaris
- TEST_PARAMETERS: in vivo
READOUT_LABEL: bioavailability

MOLECULE	RESULT
COc1cc(-c2cn(C3CCc4c(F)cccc4N(CC(F)(F)F)C3=O)nn2)ccc1-n1cnc(C)c1 (stereo unspecified)	< 5%

---

- ASSAY_EXPLANATION: Half life in rhesus monkey hepatocytes
- Format: ADME, cell-based, Macaca mulatta, Hepatocyte

COMPOUND	DISPLAY_UNIT	half-life
COc1cc(-c2cn(C3CCc4c(F)cccc4N(CC(F)(F)F)C3=O)nn2)ccc1-n1cnc(C)c1 (stereo unspecified)	min	49

---

- ASSAY_EXPLANATION: Fraction unbound in rhesus monkey
- Type: ADME, organism-based, Macaca mulatta
- TEST_PARAMETERS: in vivo

COMPOUND	fraction unbound
COc1cc(-c2cn(C3CCc4c(F)cccc4N(CC(F)(F)F)C3=O)nn2)ccc1-n1cnc(C)c1 (stereo unspecified)	0.057

---

- ASSAY_EXPLANATION: Fraction unbound in human
- Assay type: ADME, organism-based
- TEST_PARAMETERS: in vivo
READOUT_LABEL: fraction unbound

COMPOUND	QUANTITATIVE_READOUT
COc1cc(-c2cn(C3CCc4c(F)cccc4N(CC(F)(F)F)C3=O)nn2)ccc1-n1cnc(C)c1 (stereo unspecified)	0.036

---

- ASSAY_EXPLANATION: Volume of distribution at steady state in rhesus monkey at 0.25 mg/kg, iv and 0.5 mg/kg, po
- Format: ADME, organism-based, Macaca mulatta
- TEST_PARAMETERS: in vivo, read-out: Vdss

COMPOUND	Vd
COc1cc(-c2cn(C3CCc4c(F)cccc4N(CC(F)(F)F)C3=O)nn2)ccc1-n1cnc(C)c1 (stereo unspecified)	2 L/kg

---

- TARGET_OF_ASSAY: Nuclear receptor subfamily 1 group I member 2 (Homo sapiens, UniProt O75469)
- Sequence (O75469 whole entry): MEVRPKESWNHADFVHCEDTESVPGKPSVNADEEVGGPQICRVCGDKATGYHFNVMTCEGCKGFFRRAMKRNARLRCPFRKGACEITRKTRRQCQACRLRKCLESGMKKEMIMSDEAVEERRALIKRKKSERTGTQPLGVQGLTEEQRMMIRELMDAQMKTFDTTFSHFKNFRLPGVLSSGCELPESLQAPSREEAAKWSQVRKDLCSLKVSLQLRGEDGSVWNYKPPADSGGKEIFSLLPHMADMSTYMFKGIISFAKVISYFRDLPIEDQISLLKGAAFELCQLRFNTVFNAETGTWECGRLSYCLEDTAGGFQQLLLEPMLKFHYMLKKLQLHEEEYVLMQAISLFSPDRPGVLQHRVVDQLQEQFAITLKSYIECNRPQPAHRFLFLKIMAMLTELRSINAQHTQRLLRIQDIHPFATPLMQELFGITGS
- ASSAY_EXPLANATION: Activation of PXR (unknown origin)
pEC50: −log10 of the molar value.
READOUT_LABEL: pEC50

COMPOUND	RESULT
COc1cc(-c2cn(C3CCc4c(F)cccc4N(CC(F)(F)F)C3=O)nn2)ccc1-n1cnc(C)c1 (stereo unspecified)	< 4.52

Numbers sourced from ChEMBL document CHEMBL3608254.
